Molecular target: human TLR8 (Homo sapiens)
Construct: expressed in transfected cells; host or cells: HEK-Blue Null1 cells, lentiviral infection
Sequence (Q9NR97 27-1041): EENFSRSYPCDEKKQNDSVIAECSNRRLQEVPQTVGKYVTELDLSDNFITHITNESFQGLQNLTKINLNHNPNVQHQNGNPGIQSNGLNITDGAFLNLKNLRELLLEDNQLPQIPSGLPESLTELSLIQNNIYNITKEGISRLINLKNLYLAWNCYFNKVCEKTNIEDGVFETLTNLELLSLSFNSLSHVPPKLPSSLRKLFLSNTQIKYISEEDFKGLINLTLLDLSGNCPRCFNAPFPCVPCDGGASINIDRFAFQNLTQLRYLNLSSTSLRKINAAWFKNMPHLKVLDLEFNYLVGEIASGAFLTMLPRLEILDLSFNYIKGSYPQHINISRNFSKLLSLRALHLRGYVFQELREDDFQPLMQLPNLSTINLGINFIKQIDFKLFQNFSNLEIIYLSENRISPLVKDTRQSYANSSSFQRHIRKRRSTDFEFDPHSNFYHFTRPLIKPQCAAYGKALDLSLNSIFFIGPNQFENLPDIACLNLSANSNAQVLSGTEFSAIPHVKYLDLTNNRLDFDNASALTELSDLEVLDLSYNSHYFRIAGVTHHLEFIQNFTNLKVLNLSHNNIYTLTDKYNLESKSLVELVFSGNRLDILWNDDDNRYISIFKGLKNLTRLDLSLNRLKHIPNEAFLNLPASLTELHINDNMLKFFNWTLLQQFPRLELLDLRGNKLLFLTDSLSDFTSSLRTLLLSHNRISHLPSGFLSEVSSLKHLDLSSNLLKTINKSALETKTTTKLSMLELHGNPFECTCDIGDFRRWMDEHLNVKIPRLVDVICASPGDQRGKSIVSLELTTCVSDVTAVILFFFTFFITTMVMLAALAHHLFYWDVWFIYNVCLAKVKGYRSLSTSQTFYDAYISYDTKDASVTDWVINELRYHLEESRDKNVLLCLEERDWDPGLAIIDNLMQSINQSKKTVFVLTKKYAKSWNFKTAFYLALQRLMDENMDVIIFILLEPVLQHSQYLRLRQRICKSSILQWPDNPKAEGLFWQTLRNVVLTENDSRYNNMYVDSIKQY
Assay: SEAP reporter assay in HEK-Blue TLR8 cells, R848-induced TLR8 signaling
Assay type: cell-based
Details: pyrazolo[1,5-a]pyrimidine derivatives in HEK-Blue hTLR8 cells; ± SD, at least three biological replicates
Please respond with reported IC50 for every item in the list.

Measured IC50 of CCc1cccc(-c2ccnc3c(C(N)=O)cnn23)c1 : 120 nM

Measured IC50 of COc1cccc(-c2ccnc3c(C(N)=O)cnn23)c1 : 1200 nM

Measured IC50 of NC(=O)c1cnn2c(-c3cccc(F)c3)ccnc12 : 450 nM

Measured IC50 of CCOC(=O)c1cnn2c(-c3cccc(C)c3)ccnc12 : 92 nM

---

target: human TLR8 (Homo sapiens, UniProt Q9NR97); construct: expressed in transfected cells; host or cells: HEK-Blue Null1 cells, lentiviral infection; test: SEAP reporter assay in HEK-Blue TLR8 cells, R848-induced TLR8 signaling; type: cell-based; details: 1(2H)-phthalazinone and quinoline derivatives in HEK-Blue hTLR8 cells
ENDPOINT_LABEL: IC50

Measured IC50 of CCOc1ccc(-c2nn(CC)c(=O)c3ccccc23)cc1C : > 20 µM

Measured IC50 of Cc1cc(-c2c[nH]c3ccccc23)ccc1O [Compound 47, 3-(4-Hydroxy-3-methylphenyl)-indole] : 2.8 µM

Measured IC50 of Cc1cc(C)cc(-c2n[nH]c(=O)c3ccccc23)c1 : > 20 µM

Measured IC50 of O=c1[nH]nc(-c2ccccc2)c2ccccc12 : > 20 µM

Measured IC50 of Cc1cc(-c2n[nH]c3ccccc23)ccc1O [Compound 48, 3-(4-Hydroxy-3-methylphenyl)-1H-indazole] : > 20 µM

Measured IC50 of COc1c(C)cc(-c2n[nH]c(=O)c3ccccc23)cc1C : > 20 µM
